- Tested on: Malate dehydrogenase and diaphorase
- Experimental Details: Formation of formazan dyes: Malate dehydrogenase and diaphorase, absence of malate (TABLE 9)
- Assay type: biochemical, pig heart
- Stated Conditions: Malate dehydrogenase and diaphorase, absence of malate; 0 h
Measured Metric: Formation of formazan dyes, absorbance, Means 0 h

>  <Compound>
COc1cc(-c2ccc(-[n+]3nc(-c4ccc(C(=O)N(CCS(=O)(=O)[O-])CCS(=O)(=O)[O-])cc4)nn3-c3nc4ccccc4s3)c(OC)c2)ccc1-[n+]1nc(-c2ccc(C(=O)N(CCS(=O)(=O)[O-])CCS(=O)(=O)[O-])cc2)nn1-c1nc2ccccc2s1.[Na+].[Na+] [WST-5]

>  <Assay Result>
0.83

$$$$
>  <Compound>
COc1cc([N+](=O)[O-])c(S(=O)(=O)[O-])cc1-n1nc(C(=O)Nc2ccccc2)n[n+]1-c1cc(S(=O)(=O)O)c([N+](=O)[O-])cc1OC [XTT]

>  <Assay Result>
0.39

$$$$

====

- Test system: diaphorase
- Experimental Details: Formation of formazan dyes: only diaphorase and malate (TABLE 14)
- Type: biochemical, Clostridium kluyveri
- Stated Conditions: 12 h, mean of three experiments
Please assign criterion not met whenever Absorbance, formation of formazan dyes (Means) is at or above 0.3, and criterion met whenever it is below.

>  <Item Smiles>
COc1cc(-c2ccc(-[n+]3nc(-c4ccc(C(=O)N(CCS(=O)(=O)[O-])CCS(=O)(=O)[O-])cc4)nn3-c3nc4ccccc4s3)c(OC)c2)ccc1-[n+]1nc(-c2ccc(C(=O)N(CCS(=O)(=O)[O-])CCS(=O)(=O)[O-])cc2)nn1-c1nc2ccccc2s1.[Na+].[Na+]

>  <Label>
criterion not met

$$$$
>  <Item Smiles>
COc1cc([N+](=O)[O-])c(S(=O)(=O)[O-])cc1-n1nc(C(=O)Nc2ccccc2)n[n+]1-c1cc(S(=O)(=O)O)c([N+](=O)[O-])cc1OC

>  <Label>
criterion not met

$$$$
>  <Item Smiles>
Cc1nc(-[n+]2nc(-c3cccc(OCC(=O)O)c3)nn2-c2ccc(S(=O)(=O)[O-])cc2)sc1C

>  <Label>
criterion not met

$$$$
>  <Item Smiles>
COc1cc([N+](=O)[O-])ccc1-[n+]1nc(-c2ccc(S(=O)(=O)[O-])cc2S(=O)(=O)[O-])nn1-c1ccc([N+](=O)[O-])cc1.[Na+]

>  <Label>
criterion not met

$$$$
>  <Item Smiles>
O=[N+]([O-])c1ccc(-[n+]2nc(-c3ccc(S(=O)(=O)[O-])cc3S(=O)(=O)[O-])nn2-c2ccc(I)cc2)cc1.[Na+]

>  <Label>
criterion met

$$$$

====

Quick list: Formation of formazan dyes, absorbance, Means 4 h per entry.
- Test system: oral lavage
- Experimental Details: Formation of formazan dyes: oral lavage, malate and diaphorase (TABLE 12)
- Type: biochemical, human
- Stated Conditions: oral lavage, malate and diaphorase; 4 h
Measured Metric: Formation of formazan dyes, absorbance, Means 4 h

>  <Item Smiles>
COc1cc(-c2ccc(-[n+]3nc(-c4ccc(C(=O)N(CCS(=O)(=O)[O-])CCS(=O)(=O)[O-])cc4)nn3-c3nc4ccccc4s3)c(OC)c2)ccc1-[n+]1nc(-c2ccc(C(=O)N(CCS(=O)(=O)[O-])CCS(=O)(=O)[O-])cc2)nn1-c1nc2ccccc2s1.[Na+].[Na+]

>  <Assay Result>
0.67

$$$$
>  <Item Smiles>
O=[N+]([O-])c1ccc(-[n+]2nc(-c3ccc(S(=O)(=O)[O-])cc3S(=O)(=O)[O-])nn2-c2ccc(I)cc2)cc1.[Na+]

>  <Assay Result>
1.39

$$$$
>  <Item Smiles>
Cc1nc(-[n+]2nc(-c3cccc(OCC(=O)O)c3)nn2-c2ccc(S(=O)(=O)[O-])cc2)sc1C

>  <Assay Result>
1.34

$$$$
>  <Item Smiles>
COc1cc([N+](=O)[O-])c(S(=O)(=O)[O-])cc1-n1nc(C(=O)Nc2ccccc2)n[n+]1-c1cc(S(=O)(=O)O)c([N+](=O)[O-])cc1OC

>  <Assay Result>
1.19

$$$$
>  <Item Smiles>
COc1cc([N+](=O)[O-])ccc1-[n+]1nc(-c2ccc(S(=O)(=O)[O-])cc2S(=O)(=O)[O-])nn1-c1ccc([N+](=O)[O-])cc1.[Na+]

>  <Assay Result>
0.85

$$$$

====

- Tested on: Malate dehydrogenase and diaphorase
- Experimental Details: Formation of formazan dyes: Malate dehydrogenase and diaphorase, absence of malate (TABLE 9)
- Assay type: biochemical, pig heart
- Stated Conditions: Malate dehydrogenase and diaphorase, absence of malate; 3 h
// returns no (0) unless Formation of formazan dyes, absorbance, Means 3 h is strictly below 1, in which case yes (1)

>  <Item Smiles>
O=[N+]([O-])c1ccc(-[n+]2nc(-c3ccc(S(=O)(=O)[O-])cc3S(=O)(=O)[O-])nn2-c2ccc(I)cc2)cc1.[Na+]

>  <Label>
no (0)

$$$$
>  <Item Smiles>
Cc1nc(-[n+]2nc(-c3cccc(OCC(=O)O)c3)nn2-c2ccc(S(=O)(=O)[O-])cc2)sc1C

>  <Label>
yes (1)

$$$$
>  <Item Smiles>
COc1cc([N+](=O)[O-])c(S(=O)(=O)[O-])cc1-n1nc(C(=O)Nc2ccccc2)n[n+]1-c1cc(S(=O)(=O)O)c([N+](=O)[O-])cc1OC

>  <Label>
yes (1)

$$$$
>  <Item Smiles>
COc1cc([N+](=O)[O-])ccc1-[n+]1nc(-c2ccc(S(=O)(=O)[O-])cc2S(=O)(=O)[O-])nn1-c1ccc([N+](=O)[O-])cc1.[Na+]

>  <Label>
no (0)

$$$$
>  <Item Smiles>
COc1cc(-c2ccc(-[n+]3nc(-c4ccc(C(=O)N(CCS(=O)(=O)[O-])CCS(=O)(=O)[O-])cc4)nn3-c3nc4ccccc4s3)c(OC)c2)ccc1-[n+]1nc(-c2ccc(C(=O)N(CCS(=O)(=O)[O-])CCS(=O)(=O)[O-])cc2)nn1-c1nc2ccccc2s1.[Na+].[Na+]

>  <Label>
no (0)

$$$$

====

- System: diaphorase
- Experimental Details: Formation of formazan dyes: NADH and diaphorase, absence of malate (TABLE 7)
- Assay type: biochemical, Clostridium kluyveri
- Stated Conditions: NADH and diaphorase, absence of malate; 12 h
Recorded measurements of Formation of formazan dyes, absorbance, Means 12 h, one per entry
Measured Metric: Formation of formazan dyes, absorbance, Means 12 h

>  <Item Smiles>
COc1cc([N+](=O)[O-])ccc1-[n+]1nc(-c2ccc(S(=O)(=O)[O-])cc2S(=O)(=O)[O-])nn1-c1ccc([N+](=O)[O-])cc1.[Na+]

>  <Assay Result>
3.67

$$$$
>  <Item Smiles>
O=[N+]([O-])c1ccc(-[n+]2nc(-c3ccc(S(=O)(=O)[O-])cc3S(=O)(=O)[O-])nn2-c2ccc(I)cc2)cc1.[Na+]

>  <Assay Result>
3.45

$$$$
>  <Item Smiles>
COc1cc(-c2ccc(-[n+]3nc(-c4ccc(C(=O)N(CCS(=O)(=O)[O-])CCS(=O)(=O)[O-])cc4)nn3-c3nc4ccccc4s3)c(OC)c2)ccc1-[n+]1nc(-c2ccc(C(=O)N(CCS(=O)(=O)[O-])CCS(=O)(=O)[O-])cc2)nn1-c1nc2ccccc2s1.[Na+].[Na+]

>  <Assay Result>
2.66

$$$$
>  <Item Smiles>
Cc1nc(-[n+]2nc(-c3cccc(OCC(=O)O)c3)nn2-c2ccc(S(=O)(=O)[O-])cc2)sc1C

>  <Assay Result>
3.28

$$$$
>  <Item Smiles>
COc1cc([N+](=O)[O-])c(S(=O)(=O)[O-])cc1-n1nc(C(=O)Nc2ccccc2)n[n+]1-c1cc(S(=O)(=O)O)c([N+](=O)[O-])cc1OC

>  <Assay Result>
2.46

$$$$

====

The entries below come with measured Absorbance, formation of formazan dyes (Means) values attached.
- System: diaphorase
- Experimental Details: Formation of formazan dyes: only diaphorase and malate (TABLE 14)
- Assay type: biochemical, Clostridium kluyveri
- Stated Conditions: 1 h, mean of three experiments
Measured Metric: Absorbance, formation of formazan dyes (Means)

>  <Item Smiles>
Cc1nc(-[n+]2nc(-c3cccc(OCC(=O)O)c3)nn2-c2ccc(S(=O)(=O)[O-])cc2)sc1C

>  <Assay Result>
0.22

$$$$
>  <Item Smiles>
O=[N+]([O-])c1ccc(-[n+]2nc(-c3ccc(S(=O)(=O)[O-])cc3S(=O)(=O)[O-])nn2-c2ccc(I)cc2)cc1.[Na+]

>  <Assay Result>
0.22

$$$$
>  <Item Smiles>
COc1cc([N+](=O)[O-])ccc1-[n+]1nc(-c2ccc(S(=O)(=O)[O-])cc2S(=O)(=O)[O-])nn1-c1ccc([N+](=O)[O-])cc1.[Na+]

>  <Assay Result>
0.14

$$$$
>  <Item Smiles>
COc1cc([N+](=O)[O-])c(S(=O)(=O)[O-])cc1-n1nc(C(=O)Nc2ccccc2)n[n+]1-c1cc(S(=O)(=O)O)c([N+](=O)[O-])cc1OC

>  <Assay Result>
0.45

$$$$
>  <Item Smiles>
COc1cc(-c2ccc(-[n+]3nc(-c4ccc(C(=O)N(CCS(=O)(=O)[O-])CCS(=O)(=O)[O-])cc4)nn3-c3nc4ccccc4s3)c(OC)c2)ccc1-[n+]1nc(-c2ccc(C(=O)N(CCS(=O)(=O)[O-])CCS(=O)(=O)[O-])cc2)nn1-c1nc2ccccc2s1.[Na+].[Na+]

>  <Assay Result>
0.12

$$$$

Taken from patent US20180320217A1.
